- System: HT29 colon
- assay name: NCI-60 one-dose screen, 48 h
- recorded conditions: 10 µM unless noted
About 83,000 compounds went through this panel and 20% of them were active in at least one assay; those are over-represented in the sample as a whole. Calls of active or inactive are those of the source. The calls were made as follows: active = growth percent below 10; inactive = the rest.
Outcome codes: true (1) = active, false (0) = inactive

smiles_string=CN(C)CCn1c(=O)c2c3cc4c(cc3n(CCN(C)C)c2c2ccc(Cl)cc21)OCO4 assayed_target="HT29 colon" category="false (0)"
smiles_string=S=C(NCc1ccc2c(c1)OCO2)N1CCN(c2ncnc3c2oc2ccccc23)CC1 assayed_target="HT29 colon" category="false (0)"
smiles_string=COc1cnc2c(c1)C(=O)c1c-2n(CCCNC2=NCCS2)c(=O)c2cc(Cl)ccc12 assayed_target="HT29 colon" category="true (1)"
smiles_string=C[C@@]1(C(=O)Nc2ccc(F)nc2)CCCN1c1nc(Nc2cc(C3CC3)[nH]n2)c2cccn2n1 assayed_target="HT29 colon" category="true (1)"

Data provenance: PubChem BioAssay (NCI)
